assay: label from the status in PepcDB records

{"Item Sequence": "MTRVKSKLDEELSSPWFYTVCTMGGMLSAGTTHLAITPLDVLKVNMQVNPVKYNSIPSGFSTLLREHGHSYLWRGWSGKLLGYGVQGGCRFGLYEYFKTLYSDVLPNHNRTSIYFLSSASAQIFADMALCPFEAIKVRVQTQPMFAKGLLDGFPRVYRSEGLAGFHRGLFPLWCRNLPFSMVMFSTFEQSVEFIYQKIIQKRKQDCSKAQQLGVTCLAGYTAGAVGTIISNPADVVLSSLYNNKAKNVLQAVRNIGFVGLFTRSLPVRITIVGPVITLQWFFYDAIKVLSGFPTSGGVKKPVDAAKLSV", "protein production": "failed"}
{"Item Sequence": "MTERPSLSPREARDRYLAHRQTDAADASIKSFRYRLKHFVEWAEERDITAMRELTGWKLDEYETFRRGSDVSPATLNGEMQTLKNWLEYLARIDVVDEDLPEKVHVPTIPDGEESNDEMLEPEAAKKLLRAMRSDPTHYGTVKHALLELLWFTGCRVGAARSLDLRDYHSGERFVTFHHREGTPLKNDSDGERAVGLPEAVCEVLDYYIEHHRESSHDDHGRKPLFTTTQGRASENTARVWTYLATQPCLHGPCPHGKERETCSYLHIHSASKCPSSLSPHRIRTGSITWQRDCGLPAEVVSERVNATLEVIEKHYDQATKRQRLEERRRPYINNLELDLEADS", "protein production": "failed"}

====

assay: label from the status in PepcDB records
Property Measured: protein production

{"Item Sequence": "MSKFAMVFPGQGSQSLGMLADLAAQFPIVEATFSEASSVLGYDLWQLVQQGPAEELNKTWQTQPALLTASVAIWRIWQHQGGKLPSLMAGHSLGEYSALVCAGVLDFKQAVSLVELRGKLMQEAVPEGTGAMYAIIGLDNESIAKACEESAQGQVVSPVNFNSPGQVVIAGNKDAVERAGAACKAAGAKRALPLPVSVPSHCALMKPAADKLAVALEKIDFQEPLFPVVNNVDVKAEVSPVAIRSALVRQLYNPVRWTESVEFIAAEGVELLLEIGPGKVLTGLTKRIVDSLAAAAVNDVVTLNSALEH", "Property Measured": "protein production", "Observed Value": "failed"}
{"Item Sequence": "MDRLAHMQMFVAVVEAGSITAAAERMNLAKSAVSRRLAELEAGLGVSLIQRTTRRLNLTESGRTYYARCVAILADVEDAEAEVSQGHGALRGRLKVALPQAFGLLHLAPLIQTFMKRHPDVRLELDFNDRQVDLMQEGFDLAIRIATLADSTLIARRLAAIPHRVVASPGYLARRGTPRAAADLTQHDCLAYSNVRDPGLWSYRDPGGEPGQVRVVVRLAASSGEFLLQAAIADEGLVLLPAFYLHAALRSGQLSEVLADHRWPEPAAYAVYPPTRHLSARAHAFIDFLAGHLGGAGEPPAGDEVAPTLAPNTSAG", "Property Measured": "protein production", "Observed Value": "failed"}
{"Item Sequence": "MSRNKGVQYLSSSEHSLKDYLPILSMAGLILIVQVLALLLSMPMEINDMQAFEDPTQVSNSIYYIVMILVFTLFVLIAIKKNMKWIISLLIYLAIVSTLYYVFFALFTLIPALAGLENIASLLLSIGLTVLLYKYPEWYVIDLLGVCIAGGVSALIGISLSIIPVVVLLILLAVYDAISVYKTKHMIAMAEGVMDLKLPILFIIPKHLNYSFITEGFKEGEKREAFFMGLGDAVMPTLLVVSANVFLENGGLSYPVLGAMLGTLVGHIFLSILVMRGKPQAGLPFLNSGAIIGFFIGVLFSGASIL", "Property Measured": "protein production", "Observed Value": "failed"}

====

assay: label from the status in PepcDB records
Property Measured: protein production

{"Item Sequence": "MARKNQKAPWEPEEEIIWVSKSEMKRDMEELQKLGEELVGLKPAVLEKFPLSEDLREAIADAQRFKNEARRRQLQRIGKLMRYEDPEPIQAALDKVRNKHSQATAALHKLEMLRDRVVEEGDKAIDDVMELYPEADRQRLRQLARQAAKEKKAGKPAKSYREIFQILKALNEEE", "Property Measured": "protein production", "Observed Value": "not failed"}
{"Item Sequence": "MSPIARAALWMTGAIASFSAMAVAGRELSAVHDTFEIMMYRSFVGVLVVSLILSVTGTWHQVSTRALGLHALRNAVHFTGQNLWFFAVTVIPLAQVFALEFTQPLWVILLSPLLLGERMTRVRVAAAVIGFVGILIVARPGASSLNIGILTAALSAIFFAMTTISTKKLTRLASIGCIMFWLTVMQAVLGLVASGHDGQIALPTLGTAPYLVLVGLAGLLAHYCITNALAIAPATVVVPIDFARLPTIAVVGMLLYGEALDIWVLVGAAVIFAGNYLNILAETRNTAR", "Property Measured": "protein production", "Observed Value": "failed"}
{"Item Sequence": "LAALCPVAVPSGVQIYTIDGPLFFGAAATFERTLAGLHDQAEAVIFRLGRVPFADATAMHALDDVVRHFRQRHIEVRVCEANPRVAHKLREFGLLARIGQQDASISVLDALAELAPQPGTQVQAEAS", "Property Measured": "protein production", "Observed Value": "failed"}
{"Item Sequence": "REEDPHEGKIWFHGKISKQEAYNLLMTVGQVCSFLVRPSDNTPGDYSLYFRTNENIQRFKICPTPNNQFMMGGRYYNSIGDIIDHYRKEQIVEGYYLKEPVPMQDQ", "Property Measured": "protein production", "Observed Value": "not failed"}
{"Item Sequence": "MFTGMIRLVTLGTFAAALLSSPALAAGGGGGGGGGGSISSTDPYAGAYSDQKPQPTYPKRPGTKATQKGKKQGNQSSIGDPAFAAGYRVAYDTIYERNDYATAIAQLKSLGHDDHPNVANLIGYSYRKLGDYEQSQVWYERALRADPNHVQTWQYYGLWQLERGNREQALYHLGRIASICGTDCDEYRSLAAALDKPSGTALVY", "Property Measured": "protein production", "Observed Value": "failed"}
{"Item Sequence": "MSQIFVVFSSDPEILKEIVREIKRQGVRVVLLYSDQDEKRRRERLEEFEKQGVDVRTVEDKEDFRENIREIWERYPQLDVVVIVTTDDKEWIKDFIEEAKERGVEVFVVYNNKDDDRRKEAQQEFRSDGVDVRTVSDKEELIEQVRRFVRKVGSLEHHHHHH", "Property Measured": "protein production", "Observed Value": "not failed"}

Entry `GDAHDQQALDYALYHLRIMTPAHGERSSIAAKGLTGEGYKGHVFWDTEVFLLPFHLFSDPTVARSLLRYRWHNLPGAQEKARRNGWQGALFPWESARSGEEETPEFAAINIRTGLRQKVASAQAEHHLVADIAWAVIQYWQTTGDESFIAHEGMALLLETAKFWISRAVRVNDRLEIHDVIGPDEYTEHVNNNAFTSYMVYYNVQQALSIARQFGCSDDAFIHRAEMFLKELRLPEIQPDGVLPQDDSFMTKPAINLAKYKAAAGKQTILLDYSRAEVNEMQILKQADVVMLNYMLPEQFSSASCLANLQFYEPRTIHDSSLSKAIHGIVAARCGLLTQSYQFWREGTEIDLGADPHSCDDGIHAAATGAIWLGAIQGFA` has what protein production? failed

====

experiment: label from the status in PepcDB records

{"Item Sequence": "MFSAKKLSPADKLKNISSMLEEIVEDTTVPRNIRAAADNAKNALHNEEQELIVRSATAIQYLDDISEDPNMPIHTRTQIWGIVSELETIK", "protein production": "not failed"}
{"Item Sequence": "ADEEESTPCDNVETDQQTFACAAFNKQVAERELQSAYDELIERMRDQFGDEAGLMSRIEAAEKVWSQLRDADCKVETHAEQPGSNAYQIAWNSCIAQRSDERAEYLRSLGSQNSDEPAPED", "protein production": "not failed"}
{"Item Sequence": "GERRIPESRILRREVVEATSAVAAALQIPARAPVIEMTRVRLIDGAPMLAEEIWLPYDRFAAFSRLELDSIGDLLYPVYEAHCNQIVASATETLTVEAIGPAHARLLRIEPGTPAVVIERLAYGYDRRPLEWRRSRGPASEFIYQAEIR", "protein production": "failed"}
{"Item Sequence": "MNSEFDVIDRYFTRPRRNALLGPGDDAALIACKPGMDWAISVDTLVAGRHFFPDVDPATLGHKVLAVNLSDMAAMGATPCWATLSLTLTETLAQDDIWLKAFSSGFFALADQYQVELIGGDTTGGPLNISVQIIGEVERGKALRRSGAQPGDDIWVSGHLGDAALALQSLQQHVTLTAQEAAPCLAALHTPMPRVALGKALVNVAHSAIDISDGLLADLGHILDRSGVAATIDFDHIPRSPALKNKLQPENTVTNTICQLAIDCLLAGGDDYELCFTVPESKRDAVIQLAQESGILLSRIGKIIPGKGLTVLGTDSNPLIFKNKGYDHFSAR", "protein production": "failed"}

# credit: a protein production outcome set (Wang et al. 2014)
